Each item that follows carries a reported pIC50.
# Assay target: HLA-B4403 (Homo sapiens, UniProt P01889, A223V/A65T/A93T/A95T/D201E/D98Y/E176V/E187L/E204Q/E69K/G107R/H137Y/K202T/L105A/L119I/N104T/N87E/Q56L/Q94N/R106L/R155S/R180L/S101N/S121R/S35A/S48T/T118I/V36M/W191S/Y140D/Y91S)
# Run description: Competitive peptide binding assay, CIR-B4403
# Settings: HMy2.CIR-B4403 cells, reference Cy5-CYMEAVAL, class from inhibition at 5 and 15 μM, flow cytometry MFI; read-out: Binding affinity with HLA-B4403
pIC50: −log10 of the molar value. Peptide text beside a SMILES is read from it.

Determine its reported pIC50: CC[C@H](C)[C@H](NC(=O)[C@H](CCCNC(=N)N)NC(=O)[C@H](CC(C)C)NC(=O)[C@H](CCSC)NC(=O)[C@H](CC(N)=O)NC(=O)[C@@H]1CCCN1C(=O)[C@H](CCSC)NC(=O)[C@H](C)NC(=O)[C@@H](N)CCCNC(=N)N)C(=O)O [Epitope Y77] (H-RAMPNMLRI-OH; N-terminus and C-terminus assumed) < 4.82

Tell me pIC50 reported for CC[C@H](C)[C@H](NC(=O)[C@H](Cc1ccc(O)cc1)NC(=O)[C@H](CCC(N)=O)NC(=O)[C@H](CCC(=O)O)NC(=O)[C@@H](N)Cc1ccc(O)cc1)C(=O)N[C@@H](CCCCN)C(=O)N[C@@H](Cc1c[nH]c2ccccc12)C(=O)N1CCC[C@H]1C(=O)N[C@@H](Cc1c[nH]c2ccccc12)C(=O)O [Epitope Y230] (H-YEQYIKWPW-OH; N-terminus and C-terminus assumed) > 5.30

Respond only with pIC50 recorded for CC(C)C[C@H](NC(=O)[C@H](CC(N)=O)NC(=O)[C@H](CCCCN)NC(=O)[C@@H](NC(=O)[C@H](CCCNC(=N)N)NC(=O)[C@H](CO)NC(=O)[C@H](Cc1ccc(O)cc1)NC(=O)[C@@H](NC(=O)[C@@H](N)Cc1ccc(O)cc1)C(C)C)C(C)C)C(=O)O [Epitope Y3] (H-YVYSRVKNL-OH; N-terminus and C-terminus assumed) > 5.30
